// data source = patent US7074789B2

measured on: Lck (Homo sapiens, UniProt P06239)
Construct: Kinases are expressed as either kinase domains or full length constructs; made in house
Sequence (P06239 whole entry, species assumed, the tested form may be a part): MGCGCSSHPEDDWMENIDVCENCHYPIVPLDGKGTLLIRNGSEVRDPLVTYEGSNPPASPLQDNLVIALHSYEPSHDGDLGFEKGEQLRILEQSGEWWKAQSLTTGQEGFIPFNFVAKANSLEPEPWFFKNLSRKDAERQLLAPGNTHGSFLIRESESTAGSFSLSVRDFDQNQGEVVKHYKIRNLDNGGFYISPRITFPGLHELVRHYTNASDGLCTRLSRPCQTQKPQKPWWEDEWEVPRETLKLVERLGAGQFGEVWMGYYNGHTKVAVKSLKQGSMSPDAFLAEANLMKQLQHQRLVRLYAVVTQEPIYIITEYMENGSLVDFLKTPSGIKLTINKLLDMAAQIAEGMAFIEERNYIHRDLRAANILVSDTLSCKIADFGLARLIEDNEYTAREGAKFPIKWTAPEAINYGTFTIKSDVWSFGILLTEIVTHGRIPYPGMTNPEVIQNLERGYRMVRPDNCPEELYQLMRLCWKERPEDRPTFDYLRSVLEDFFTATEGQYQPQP
procedure details: Kinase inhibition assay (33P transfer), Lck
Format: biochemical
assay setup: Table 3; read-out: Lck-1
Text: The inhibitor compounds described herein are screened in the following manner. […] Kinases are expressed as either kinase domains or full length constructs fused to glutathione S-transferase (GST) or polyHistidine tagged fusion proteins in either E. colior Baculovirus-High Five expression systems. […]
endpoint label: IC50

For the molecule shown here, `COc1cc(Nc2ncnc(N(Cc3ccccc3)c3nc4ccccc4[nH]3)n2)cc(OC)c1OC` , give the reported IC50.
> 9.31 µM

For the molecule shown here, `Cc1cccc(Nc2ncnc(Nc3ccc4[nH]ncc4c3)n2)c1` , give the reported IC50.
11 to 14.2 µM

For the molecule shown here, `COCCOc1cc(Nc2ncnc(Nc3ccc(C)c(O)c3)n2)ccc1OC` , give the reported IC50.
1.01 to 6.04 µM

For the molecule shown here, `Clc1ncnc(Nc2ccc(OCc3ccccc3)cc2)n1` , give the reported IC50.
> 14.4 µM

For the molecule shown here, `COCCOc1ccc(Nc2ncnc(Nc3ccc4[nH]ccc4c3)n2)cc1OCCOC` , give the reported IC50.
7.77 to 9.99 µM

For the molecule shown here, `COc1ccc(Nc2ncnc(Nc3ccc4[nH]ccc4c3)n2)cc1OC` , give the reported IC50.
1.1 to 6.62 µM

For the molecule shown here, `COc1cc(Nc2ncnc(-n3c(N)nc4ccccc43)n2)cc(OC)c1OCCN1CCOCC1` , give the reported IC50.
< 0.812 µM

For the molecule shown here, `Cc1cc(Br)ccc1Nc1ncnc(-n2cccc2)n1` , give the reported IC50.
> 13.6 µM

For the molecule shown here, `COc1cc(NC(=O)Nc2ncnc(Nc3cc(OC)c(OC)c(OC)c3)n2)cc(OC)c1` , give the reported IC50.
> 9.86 µM

====

measured on: Zap-70 (Homo sapiens)
Construct: Kinases are expressed as either kinase domains or full length constructs; made in house
Sequence (P43403 1-619): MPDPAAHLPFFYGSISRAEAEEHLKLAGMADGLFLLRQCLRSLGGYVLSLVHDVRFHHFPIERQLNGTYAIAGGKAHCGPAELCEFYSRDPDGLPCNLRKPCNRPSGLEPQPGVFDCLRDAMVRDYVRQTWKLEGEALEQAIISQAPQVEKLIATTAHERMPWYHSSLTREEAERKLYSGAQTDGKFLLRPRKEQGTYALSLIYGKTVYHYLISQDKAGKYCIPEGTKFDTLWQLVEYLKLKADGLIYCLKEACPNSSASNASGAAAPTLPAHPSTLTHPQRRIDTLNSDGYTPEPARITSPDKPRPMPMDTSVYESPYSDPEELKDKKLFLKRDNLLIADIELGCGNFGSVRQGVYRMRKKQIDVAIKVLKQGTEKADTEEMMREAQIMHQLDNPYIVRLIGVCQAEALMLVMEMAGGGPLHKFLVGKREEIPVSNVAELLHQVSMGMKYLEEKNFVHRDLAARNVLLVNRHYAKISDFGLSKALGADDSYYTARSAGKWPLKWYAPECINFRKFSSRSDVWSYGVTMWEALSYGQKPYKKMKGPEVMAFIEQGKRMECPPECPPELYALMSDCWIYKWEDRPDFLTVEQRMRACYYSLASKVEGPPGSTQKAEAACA
procedure details: Kinase inhibition assay (33P transfer), Zap-70
Format: biochemical
assay setup: read-out: Zap-1
endpoint label: IC50

For the compound shown here, COc1cc(C)c(Nc2ncnc(-n3c(N)nc4ccccc43)n2)cc1OC [Compound 524] , give the reported IC50.
> 11.9 µM

For the compound shown here, C=CCNc1ncccc1-c1ncnc(Nc2ccc(C(N)=O)cc2)n1 [Compound 1081] , give the reported IC50.
> 13 µM

For the compound shown here, CCC(O)CNc1ncnc(Nc2ccc(OC)c(OC)c2)n1 (stereo not drawn) [Compound 788] , give the reported IC50.
> 14.1 µM

For the compound shown here, c1ccc(Cn2ncc3cc(Nc4ncnc(Nc5ccc(N6CCOCC6)cc5)n4)ccc32)cc1 [Compound 729] , give the reported IC50.
5.02 to 7.31 µM

For the compound shown here, COc1cc(Nc2ncnc(-n3c(NCCc4cccnc4)nc4ccccc43)n2)cc(OC)c1OC [Compound 947] , give the reported IC50.
> 9.03 µM

For the compound shown here, COc1cc(Nc2ncnc(N(C)c3ccc(Cl)cc3)n2)cc(OC)c1OC [Compound 616] , give the reported IC50.
> 11.2 µM

For the compound shown here, COc1cc(Nc2ncnc(NCCc3ccccc3)n2)cc(OC)c1OC [Compound 628] , give the reported IC50.
> 11.8 µM

For the compound shown here, COC(=O)n1c(=O)n(-c2ncnc(Nc3cc(OC)c(OC)c(OC)c3)n2)c2ccccc21 [Compound 1032] , give the reported IC50.
> 9.95 µM

For the compound shown here, CN(c1cccc(Cl)c1)c1ncnc(NCC2CCCO2)n1 (stereo not drawn) [Compound 739] , give the reported IC50.
> 14.1 µM

For the compound shown here, Cc1ccc2c(c1)CCCN2c1ncnc(NCCc2c[nH]c3ccccc23)n1 [Compound 768] , give the reported IC50.
> 11.7 µM

For the compound shown here, c1ccc(CCNc2ncnc(Nc3ccc4c(cnn4Cc4ccccc4)c3)n2)cc1 [Compound 734] , give the reported IC50.
5.69 to 8.3 µM

For the compound shown here, COc1ccc(Nc2ncnc(-n3c(N)nc4ccccc43)n2)cn1 [Compound 648] , give the reported IC50.
> 13.5 µM

For the compound shown here, O=c1[nH]c2ccccc2n1-c1ncnc(Nc2ccc(O)cc2)n1 [Compound 682] , give the reported IC50.
> 14 µM

For the compound shown here, CC(C)Nc1ncccc1-c1ncnc(Nc2ccc(C(N)=O)cc2)n1 [Compound 1084] , give the reported IC50.
> 12.9 µM

For the compound shown here, COc1cc(Nc2ncnc(-n3c(NCc4ccc(O)cc4)nc4ccccc43)n2)cc(OC)c1OC [Compound 561] , give the reported IC50.
> 9.01 µM

For the compound shown here, Cc1cccc(Nc2ncnc(N(C)c3cccc(Br)c3)n2)c1 [Compound 666] , give the reported IC50.
> 12.2 µM

For the compound shown here, COc1cc(Nc2ncnc(-n3c(NC(C)(C)c4ccccc4)nc4ccccc43)n2)cc(OC)c1OC [Compound 569] , give the reported IC50.
> 8.8 µM

For the compound shown here, Nc1nc2ccccc2n1-c1ncnc(Nc2ccc(Cl)cc2)n1 [Compound 478] , give the reported IC50.
1.18 to 7.11 µM
